These data points were gathered from ChEMBL document CHEMBL2401646.

# EXPERIMENTAL_TARGET: Hepatocyte growth factor receptor (Homo sapiens)
# EXPERIMENT_NOTES: Inhibition of cMET (unknown origin) using biotinylated poly(Glu,Tyr) as substrate after 60 mins
MEASUREMENT_LABEL: pIC50
Note on pIC50: it is the negative log10 of concentration, concentration in mol/L.

Please give the measured pIC50 for this compound: C[C@@H](Oc1c(N)ncc2c(C3=CCN(C(N)=O)CC3)coc12)c1c(Cl)ccc(F)c1Cl
7.59

====

# EXPERIMENTAL_TARGET: Hepatocyte growth factor receptor (Homo sapiens, UniProt P08581, Y1230C)
# Sequence (P08581 25-1390 Y1230C limits assumed): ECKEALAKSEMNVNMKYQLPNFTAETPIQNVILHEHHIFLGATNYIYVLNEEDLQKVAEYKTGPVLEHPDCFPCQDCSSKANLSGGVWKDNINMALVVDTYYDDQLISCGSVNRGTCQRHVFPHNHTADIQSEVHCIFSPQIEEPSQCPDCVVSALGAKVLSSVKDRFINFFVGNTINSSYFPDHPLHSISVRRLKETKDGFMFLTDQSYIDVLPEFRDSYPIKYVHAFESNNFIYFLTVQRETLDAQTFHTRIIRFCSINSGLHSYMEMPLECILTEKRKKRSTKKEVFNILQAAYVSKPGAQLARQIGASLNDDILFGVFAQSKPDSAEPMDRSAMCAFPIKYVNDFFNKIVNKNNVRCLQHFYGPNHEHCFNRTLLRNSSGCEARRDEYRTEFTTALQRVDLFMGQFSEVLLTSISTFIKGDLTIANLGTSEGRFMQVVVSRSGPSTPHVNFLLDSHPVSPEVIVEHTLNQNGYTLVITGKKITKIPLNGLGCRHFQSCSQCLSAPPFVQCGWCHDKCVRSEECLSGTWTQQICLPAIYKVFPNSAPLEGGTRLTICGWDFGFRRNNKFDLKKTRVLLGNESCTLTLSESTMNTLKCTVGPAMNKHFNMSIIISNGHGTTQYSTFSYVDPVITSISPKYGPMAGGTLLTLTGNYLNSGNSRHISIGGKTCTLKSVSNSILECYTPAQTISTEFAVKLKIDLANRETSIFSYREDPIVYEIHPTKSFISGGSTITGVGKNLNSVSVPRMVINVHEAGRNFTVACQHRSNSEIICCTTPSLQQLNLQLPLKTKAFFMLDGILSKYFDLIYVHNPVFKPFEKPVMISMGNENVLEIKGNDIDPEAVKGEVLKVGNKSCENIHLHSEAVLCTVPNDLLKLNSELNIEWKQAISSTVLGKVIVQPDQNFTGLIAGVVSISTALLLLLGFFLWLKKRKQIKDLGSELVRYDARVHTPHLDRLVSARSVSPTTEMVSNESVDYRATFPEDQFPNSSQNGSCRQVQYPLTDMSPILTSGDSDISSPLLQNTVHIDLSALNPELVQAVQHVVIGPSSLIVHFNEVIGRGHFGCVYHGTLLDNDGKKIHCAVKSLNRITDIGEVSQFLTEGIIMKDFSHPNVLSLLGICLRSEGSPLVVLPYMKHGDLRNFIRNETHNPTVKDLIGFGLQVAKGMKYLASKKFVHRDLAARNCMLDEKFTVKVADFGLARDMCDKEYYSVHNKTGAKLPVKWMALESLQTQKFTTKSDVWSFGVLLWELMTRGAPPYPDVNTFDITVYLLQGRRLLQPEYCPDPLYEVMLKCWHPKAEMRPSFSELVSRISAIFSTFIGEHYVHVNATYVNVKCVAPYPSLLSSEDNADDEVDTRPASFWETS
# EXPERIMENT_NOTES: Inhibition of cMET Y1230C mutant (unknown origin) autophosphorylation
MEASUREMENT_LABEL: pIC50
Note on pIC50: it is the negative log10 of concentration, concentration in mol/L.

Please give the measured pIC50 for this compound: C[C@@H](Oc1c(N)ncc2c(C3=CCN(C(N)=O)CC3)coc12)c1c(Cl)ccc(F)c1Cl
7.14

====

# EXPERIMENTAL_TARGET: UniProt:Q96GD4
# Sequence (Q96GD4 whole entry): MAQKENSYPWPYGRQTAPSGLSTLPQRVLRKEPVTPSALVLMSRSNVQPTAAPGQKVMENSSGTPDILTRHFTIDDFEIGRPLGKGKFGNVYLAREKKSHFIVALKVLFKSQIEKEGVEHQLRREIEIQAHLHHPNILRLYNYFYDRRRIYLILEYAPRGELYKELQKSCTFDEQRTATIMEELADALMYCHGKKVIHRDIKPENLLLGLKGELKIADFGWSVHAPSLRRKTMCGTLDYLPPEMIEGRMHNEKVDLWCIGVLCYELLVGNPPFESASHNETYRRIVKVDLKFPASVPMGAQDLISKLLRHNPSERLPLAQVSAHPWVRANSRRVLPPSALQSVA
# EXPERIMENT_NOTES: Inhibition of aurora-B in human HT-29 cells assessed as phosphorylation of histone H3 at Ser10 in presence of mouse plasma
# Format: cell-based
pIC50: −log10 of the molar value.
MEASUREMENT_LABEL: pIC50

Please give the measured pIC50 for this compound: C[C@@H](Oc1c(N)ncc2c(C3=CCN(C(N)=O)CC3)coc12)c1c(Cl)ccc(F)c1Cl
< 5.00

====

# EXPERIMENT_NOTES: Volume of distribution at steady state in Sprague-Dawley rat at 2 mg/kg, iv
# Assay type: ADME, organism-based
# Design: dose 2 mg/kg, route intravenous
# TEST_CONTEXT: in vivo, read-out: Vdss
MEASUREMENT_LABEL: Vd
The reply should consist of the numeric value with the unit placed after it.

Please give the measured Vd for this molecule: C[C@@H](Oc1c(N)ncc2c(C3=CCN(C(N)=O)CC3)coc12)c1c(Cl)ccc(F)c1Cl
6.8 L/kg

====

# EXPERIMENT_NOTES: Plasma concentration in human MKN45 cells xenografted in mouse at 100 mg/kg, po after 16 hrs
# Assay type: ADME, organism-based, MKN-45
# Design: dose 100 mg/kg, route oral
MEASUREMENT_LABEL: concentration at 16 h

Please give the measured concentration at 16 h for this compound: C[C@@H](Oc1c(N)ncc2c(C3=CCN(C(N)=O)CC3)coc12)c1c(Cl)ccc(F)c1Cl
520 nM

====

# EXPERIMENT_NOTES: Cmax in Sprague-Dawley rat at 20 mg/kg, po
# Assay type: ADME, organism-based
# Design: dose 20 mg/kg, route oral
# TEST_CONTEXT: in vivo
MEASUREMENT_LABEL: Cmax (nM)
Quick reminder: number only, in nM, skip the unit.

Please give the measured Cmax for this compound: C[C@@H](Oc1c(N)ncc2c(C3=CCN(C(N)=O)CC3)coc12)c1c(Cl)ccc(F)c1Cl
2500

====

# EXPERIMENTAL_TARGET: Vascular endothelial growth factor receptor 2 (Homo sapiens, UniProt P35968)
# Sequence (P35968 whole entry): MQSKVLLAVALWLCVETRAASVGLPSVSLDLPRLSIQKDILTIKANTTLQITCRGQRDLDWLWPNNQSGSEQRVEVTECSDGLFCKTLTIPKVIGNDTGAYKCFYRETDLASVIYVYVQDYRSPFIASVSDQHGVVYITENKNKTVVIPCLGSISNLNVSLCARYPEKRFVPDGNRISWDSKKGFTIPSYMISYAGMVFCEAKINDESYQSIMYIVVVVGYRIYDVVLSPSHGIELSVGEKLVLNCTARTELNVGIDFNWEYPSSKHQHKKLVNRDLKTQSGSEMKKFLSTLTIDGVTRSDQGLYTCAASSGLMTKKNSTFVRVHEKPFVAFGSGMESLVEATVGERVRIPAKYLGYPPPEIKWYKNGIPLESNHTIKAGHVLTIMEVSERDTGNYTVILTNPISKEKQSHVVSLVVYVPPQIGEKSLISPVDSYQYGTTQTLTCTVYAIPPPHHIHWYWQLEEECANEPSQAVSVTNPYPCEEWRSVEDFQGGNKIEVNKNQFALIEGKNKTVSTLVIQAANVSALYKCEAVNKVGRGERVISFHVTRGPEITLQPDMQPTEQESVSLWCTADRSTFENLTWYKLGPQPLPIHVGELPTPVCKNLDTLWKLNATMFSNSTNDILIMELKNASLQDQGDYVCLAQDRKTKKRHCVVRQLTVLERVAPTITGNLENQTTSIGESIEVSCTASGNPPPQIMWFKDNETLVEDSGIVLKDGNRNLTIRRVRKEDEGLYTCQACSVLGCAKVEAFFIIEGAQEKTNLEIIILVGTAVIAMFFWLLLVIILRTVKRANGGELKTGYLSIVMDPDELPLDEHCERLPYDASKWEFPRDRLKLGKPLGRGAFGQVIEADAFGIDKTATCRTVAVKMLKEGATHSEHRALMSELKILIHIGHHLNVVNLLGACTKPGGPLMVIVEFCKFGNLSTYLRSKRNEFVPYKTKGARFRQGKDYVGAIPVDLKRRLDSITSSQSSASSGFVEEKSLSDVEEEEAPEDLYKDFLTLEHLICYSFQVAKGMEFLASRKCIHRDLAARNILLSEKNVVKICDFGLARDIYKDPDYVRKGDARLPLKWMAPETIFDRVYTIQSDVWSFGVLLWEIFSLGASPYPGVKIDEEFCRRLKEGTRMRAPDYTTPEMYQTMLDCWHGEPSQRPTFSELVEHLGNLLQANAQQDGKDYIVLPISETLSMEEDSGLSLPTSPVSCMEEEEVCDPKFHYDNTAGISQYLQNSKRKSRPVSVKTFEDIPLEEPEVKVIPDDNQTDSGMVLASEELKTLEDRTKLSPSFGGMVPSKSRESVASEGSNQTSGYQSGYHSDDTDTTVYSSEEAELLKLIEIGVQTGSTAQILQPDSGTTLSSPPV
# EXPERIMENT_NOTES: Inhibition of KDR autophosphorylation in HUVEC
MEASUREMENT_LABEL: pIC50
Note on pIC50: it is the negative log10 of concentration, concentration in mol/L.

Please tell me: pIC50 of C[C@@H](Oc1c(N)ncc2c(C3=CCN(C(N)=O)CC3)coc12)c1c(Cl)ccc(F)c1Cl , system Vascular endothelial growth factor receptor 2 (Homo sapiens, UniProt P35968)?
5.21
